Reported pEC50 values follow for various molecules
target: Metabotropic glutamate receptor 5 (Homo sapiens, UniProt P41594); assay: Positive allosteric modulation of mGluR5
Sequence (P41594 whole entry): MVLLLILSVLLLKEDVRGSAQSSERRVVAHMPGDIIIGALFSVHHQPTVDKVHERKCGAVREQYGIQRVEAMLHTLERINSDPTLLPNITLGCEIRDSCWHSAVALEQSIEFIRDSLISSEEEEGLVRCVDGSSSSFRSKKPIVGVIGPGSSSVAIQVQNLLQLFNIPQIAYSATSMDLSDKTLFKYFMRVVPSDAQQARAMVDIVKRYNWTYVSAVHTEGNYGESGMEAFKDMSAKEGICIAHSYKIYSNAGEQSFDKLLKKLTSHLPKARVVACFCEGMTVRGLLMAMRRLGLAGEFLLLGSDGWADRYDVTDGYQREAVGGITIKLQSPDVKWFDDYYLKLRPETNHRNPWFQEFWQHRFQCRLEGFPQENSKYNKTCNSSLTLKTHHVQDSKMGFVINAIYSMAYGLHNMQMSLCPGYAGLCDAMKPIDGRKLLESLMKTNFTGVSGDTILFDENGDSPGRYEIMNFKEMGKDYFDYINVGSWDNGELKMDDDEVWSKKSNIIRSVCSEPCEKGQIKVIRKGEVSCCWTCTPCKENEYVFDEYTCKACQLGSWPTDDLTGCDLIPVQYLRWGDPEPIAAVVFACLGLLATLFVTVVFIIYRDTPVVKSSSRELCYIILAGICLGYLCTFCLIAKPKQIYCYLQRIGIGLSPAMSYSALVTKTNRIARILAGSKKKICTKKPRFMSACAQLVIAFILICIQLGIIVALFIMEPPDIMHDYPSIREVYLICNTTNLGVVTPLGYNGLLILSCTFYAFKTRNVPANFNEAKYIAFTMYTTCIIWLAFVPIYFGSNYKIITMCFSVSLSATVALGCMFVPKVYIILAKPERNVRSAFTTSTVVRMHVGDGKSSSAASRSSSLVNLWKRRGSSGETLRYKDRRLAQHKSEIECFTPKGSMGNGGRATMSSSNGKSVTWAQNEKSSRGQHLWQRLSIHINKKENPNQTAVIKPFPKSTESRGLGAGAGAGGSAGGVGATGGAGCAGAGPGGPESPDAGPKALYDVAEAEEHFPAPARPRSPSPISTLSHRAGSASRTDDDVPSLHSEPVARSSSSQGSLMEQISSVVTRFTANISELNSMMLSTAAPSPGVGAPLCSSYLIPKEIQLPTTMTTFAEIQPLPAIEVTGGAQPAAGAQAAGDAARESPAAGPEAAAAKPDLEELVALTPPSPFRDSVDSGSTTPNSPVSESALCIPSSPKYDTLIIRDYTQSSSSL
pEC50: −log10 of the molar value.
parameterMeasured: pEC50

Cc1cc(=O)[nH]c2oc(C(=O)c3ccc(F)cc3)c(N)c12; 5.21
COCc1c(Cl)c(C)nc2oc(C(=O)c3ccc(F)cc3)c(N)c12; 5.19
Nc1c(C(=O)c2ccc(F)cc2)oc2ncc(Br)cc12; 5.12

---

# Lookup of reported pIC50 keyed by entry
molecular target: Metabotropic glutamate receptor 5 (Homo sapiens); test: Non-competitive antagonist activity at mGluR5
pIC50: −log10 of the molar value.
parameterMeasured: pIC50

O=C(C1CC1)N1CCCC2(CCCCC2)C1; < 5.00
O=C(c1cccs1)N1CCCC2(CCCCC2)C1; 5.93
Cc1cc(C)c2c(N)c(C(=O)c3ccccc3)oc2n1; < 5.00
O=C(Cc1cccs1)N1CCCC2(CCCCC2)C1; < 5.00
COc1ccccc1N1CCN(C(=O)C23CC4CC(CC(C4)C2)C3)CC1; < 5.00
O=C(N1CCN(c2ccccc2Cl)CC1)C12CC3CC(CC(C3)C1)C2; < 4.52
O=C(N1CCN(c2ccccn2)CC1)C12CC3CC(CC(C3)C1)C2; 6.00
Cc1ccc(C(=O)N2CCCC3(CCCCC3)C2)cc1; < 5.00
O=C(c1cnc2ccccc2n1)N1CCCC2(CCCCC2)C1; 5.30
